Listed here are compounds together with their documented logD.
# assay summary: physchem
# recorded conditions: buffer, pH 7.4
// return a plain number; no unit text

Sample records with logD:
smiles_text=Cc1oc(-c2ccccc2)nc1C(=O)N1CCC(Oc2ccc(CN3CCCC3)cc2)CC1 observed=3
smiles_text=O=C(c1nnc(-c2ccc(OC(F)F)cc2)o1)N1CCC(Oc2ccc(CN3CCCC3)cc2)CC1 observed=2.9
smiles_text=COc1ccc(-c2nnc(C(=O)N3CC(Oc4ccc(CN(C)CC5(C)COC5)cc4)C3)o2)cc1 observed=4.1

# logD of `O=C(c1nnc(-c2ccc(F)cc2)o1)N1CCC(Oc2ccc(CN3CCCC3)cc2)CC1` = 2.4

# logD of `COc1ccc(-c2nnc(C(=O)N3CC(Oc4ccc(CN5CCN(C)CC5)c(F)c4)C3)o2)cc1` = 2.2

# logD of `O=C(c1nnc(-c2ccccc2)o1)N1CC(Oc2ccc(CN3CC4(CCCO4)C3)cc2)C1` = 2.6

# logD of `COc1ccc(-c2nnc(C(=O)N3CCC(Oc4ccc(CN5CCCC5)nc4)CC3)o2)cc1` = 1.8

# logD of `Cn1nc(C(=O)N2CCC(Oc3ccc(CN4CCCC4)cc3)CC2)cc1-c1ccccc1` = 2.2

----------
Listed here are compounds together with their documented solubility.
# assay summary: physchem
# recorded conditions: pH 7.4
Report the value in µM with no unit label.

Sample records with solubility:
smiles_text=Cn1nc(C(=O)N2CCC(Oc3ccc(CN4CCCC4)cc3)CC2)cc1-c1ccccc1 unit_tag=µM observed=930
smiles_text=Cc1oc(-c2ccccc2)nc1C(=O)N1CCC(Oc2ccc(CN3CCCC3)cc2)CC1 unit_tag=µM observed=754
smiles_text=O=C(c1cc(-c2ccccc2)on1)N1CCC(Oc2ccc(CN3CCCC3)cc2)CC1 unit_tag=µM observed=198

# solubility of `O=C(c1nnc(-c2ccc(Cl)cc2)o1)N1CCC(Oc2ccc(CN3CCCC3)cc2)CC1` = 70

----------
# assay summary: in vitro
# recorded conditions: human, Caco-2
quantity measured: Papp A→B (×10⁻⁶ cm/s)
Report the value in ×10⁻⁶ cm/s with no unit label.

Sample records with Papp A→B:
compound=COc1ccc(-c2nnc(C(=O)N3CC(Oc4ccc(CN5CC6(CCOC6)C5)cc4)C3)o2)cc1 quantity_measured="Papp A→B" unit_tag="×10⁻⁶ cm/s" observed=60
compound="COc1ccc(-c2nnc(C(=O)N3CCC(Oc4ccc(CN5CCC(O)C5)cc4)CC3)o2)cc1 (stereo not drawn)" quantity_measured="Papp A→B" unit_tag="×10⁻⁶ cm/s" observed=36

# Papp A→B of `CN1CCN(Cc2ccc(OC3CN(C(=O)c4nnc(-c5ccccc5)o4)C3)cc2F)CC1` = 46

----------
Listed here are molecules together with their documented pKa.
# assay summary: physchem
// return a plain number; no unit text

Sample records with pKa:
molecule=COc1ccc(-c2nnc(C(=O)N3CCC(Oc4ccc(CN5CCCC5)cn4)CC3)o2)cc1 observed=9.2
molecule="COc1ccc(-c2nnc(C(=O)N3CCC(Oc4ccc(CN5CCC(O)C5)cc4)CC3)o2)cc1 (stereo not drawn)" observed=8.9
molecule=COc1ccc(-c2nnc(C(=O)N3CC(Oc4ccc(CN(C)C)cc4)C3)o2)cc1 observed=8.9

# pKa of `COc1ccc(-c2nnc(C(=O)N3CC(Oc4ccc(CN5CC(OC)C5)cc4)C3)o2)cc1` = 8.5

# pKa of `COc1ccc(-c2nnc(C(=O)N3CC(Oc4ccc(CN5CCOCC5)c(OC)c4)C3)o2)cc1` = 7.5

# pKa of `COc1ccc(-c2nnc(C(=O)N3CC(Oc4ccc(CN(C)C)cn4)C3)o2)cc1` = 8.5

# pKa of COc1ccc(-c2nnc(C(=O)N3CC(Oc4ccc(CN5CCC(C)(O)C5)cc4)C3)o2)cc1 (stereo not drawn) = 9

# pKa of `COc1ccc(-c2nnc(C(=O)N3CCC(Oc4ccc(CN5CCCC5)nc4)CC3)o2)cc1` = 9.1

# pKa of `COc1ccc(-c2nnc(C(=O)N3CC(Oc4ccc(CN5CCN(C)CC5)c(F)c4)C3)o2)cc1` = 8.4

# pKa of `COc1ccc(-c2nnc(C(=O)N3CC(Oc4ccc(CN5CC6(CCCO6)C5)cc4)C3)o2)cc1` = 8.4

# pKa of `CN(Cc1ccc(OC2CN(C(=O)c3nnc(-c4ccccc4)o3)C2)cc1)CC1(C)COC1` = 8.5

# pKa of `COc1ccc(-c2nnc(C(=O)N3CC(Oc4ccc(CN(C)C)c(C)c4)C3)o2)cc1` = 9.3

# pKa of `O=C(c1nnc(-c2ccccc2)o1)N1CC(Oc2ccc(CN3CC4(CCCO4)C3)cc2)C1` = 8.4

----------
Listed here are molecules together with their documented pKa.
# assay summary: physchem
// return a plain number; no unit text

molecule=COc1ccc(-c2nnc(C(=O)N3CC(Oc4ccc(CN(C)C)c(F)c4)C3)o2)cc1 observed=8.6
molecule=CN1CCN(Cc2ccc(OC3CN(C(=O)c4nnc(-c5ccccc5)o4)C3)cc2F)CC1 observed=8.4
molecule=COc1ccc(-c2nnc(C(=O)N3CCC(Oc4ccc(CN5CCN(C)CC5)cc4)CC3)o2)cc1 observed=8.5
molecule=O=C(c1nnc(-c2ccccc2)o1)N1CC(Oc2ccc(CN3CC4(CCOC4)C3)cc2)C1 observed=8.6
molecule=COc1ccc(-c2nnc(C(=O)N3CC(Oc4ccc(CN(C)CC5(C)COC5)cc4)C3)o2)cc1 observed=8
molecule="COc1ccc(-c2nnc(C(=O)N3CCC(Oc4ccc(CN5CC(O)C(C)(C)C5)cc4)CC3)o2)cc1 (centres undefined)" observed=8.9
molecule="CC1(O)CCN(Cc2ccc(OC3CN(C(=O)c4nnc(-c5ccccc5)o4)C3)cc2)C1 (centres undefined)" observed=9
molecule=COc1ccc(-c2nnc(C(=O)N3CC(Oc4ccc(CN5CC6(CCOC6)C5)cc4)C3)o2)cc1 observed=8.6

// next entry
# pKa of `COc1ccc(-c2nnc(C(=O)N3CC(Oc4ccc(CN5CCCOCC5)cc4)C3)o2)cc1` = 8.1

----------
# assay summary: in vitro
# recorded conditions: human, Caco-2
quantity measured: efflux ratio
// return a plain number; no unit text

Sample records with efflux ratio:
compound=CN1CCN(Cc2ccc(OC3CN(C(=O)c4nnc(-c5ccccc5)o4)C3)cc2F)CC1 observed=0.35
compound=COc1ccc(-c2nnc(C(=O)N3CC(Oc4ccc(CN5CCN(C)CC5)c(F)c4)C3)o2)cc1 observed=0.35
compound=COc1ccc(-c2nnc(C(=O)N3CC(Oc4ccc(CN(C)C)c(F)c4)C3)o2)cc1 observed=0.32
compound=COc1ccc(-c2nnc(C(=O)N3CC(Oc4ccc(CN(C)C)c(C)c4)C3)o2)cc1 observed=0.3

// next entry
# efflux ratio of CC1(O)CCN(Cc2ccc(OC3CN(C(=O)c4nnc(-c5ccccc5)o4)C3)cc2)C1 (stereo not given) = 0.26

----------
# assay summary: physchem
# recorded conditions: buffer, pH 7.4
Assign Condition met to entries whose logD meets or exceeds 2; assign Condition not met to the rest.

Observe how each entry below is paired with its result.
molecule=COc1ccc(-c2nnc(C(=O)N3CC(Oc4ccc(CN5CCCOCC5)cc4)C3)o2)cc1 class_label="Condition met"
molecule=O=C(c1cc(-c2ccccc2)on1)N1CCC(Oc2ccc(CN3CCCC3)cc2)CC1 class_label="Condition met"
molecule=COc1ccc(-c2nnc(C(=O)N3CCC(Oc4ccc(CN5CCCC5)cn4)CC3)o2)cc1 class_label="Condition met"

# input Check this molecule for logD at or above 2: COc1ccc(-c2nnc(C(=O)N3CCC(Oc4ccc(CN5CC(O)C(C)(C)C5)cc4)CC3)o2)cc1 (centres undefined)
# output Condition met

# input Check this molecule for logD at or above 2: `COc1ccc(-c2nnc(C(=O)N3CC(Oc4ccc(CN(C)C)cc4)C3)o2)cc1`
# output Condition not met

# input Check this molecule for logD at or above 2: `COc1ccc(-c2nnc(C(=O)N3CC(Oc4ccc(CN5CC6(CCOC6)C5)cc4)C3)o2)cc1`
# output Condition met

# input Check this molecule for logD at or above 2: CC1(O)CCN(Cc2ccc(OC3CN(C(=O)c4nnc(-c5ccccc5)o4)C3)cc2)C1 (centres undefined)
# output Condition not met

# input Check this molecule for logD at or above 2: `COc1ccc(-c2nnc(C(=O)N3CCC(Oc4ccc(CN5CCN(C)CC5)cc4)CC3)o2)cc1`
# output Condition met

----------
# assay summary: in vitro
# recorded conditions: human, microsomes
quantity measured: microsomal CLint (µL/min/mg)
Report the value in µL/min/mg with no unit label.

Sample records with microsomal CLint:
molecule=COc1ccc(-c2nnc(C(=O)N3CC(Oc4ccc(CN(C)C)cn4)C3)o2)cc1 quantity_measured="microsomal CLint" unit_tag=µL/min/mg observed=13
molecule="COc1ccc(-c2nnc(C(=O)N3CCC(Oc4ccc(CN5CC(O)C(C)(C)C5)cc4)CC3)o2)cc1 (centres undefined)" quantity_measured="microsomal CLint" unit_tag=µL/min/mg observed=19
molecule=COc1ccc(-c2nnc(C(=O)N3CC(Oc4ccc(CN(C)C)c(F)c4)C3)o2)cc1 quantity_measured="microsomal CLint" unit_tag=µL/min/mg observed=42

# microsomal CLint of `COc1ccc(-c2nnc(C(=O)N3CC(Oc4ccc(CN(C)CC5(C)COC5)cc4)C3)o2)cc1` = 110

# microsomal CLint of `COc1ccc(-c2nnc(C(=O)N3CC(Oc4ccc(CN5CCCC56COC6)cc4)C3)o2)cc1` = 74

# microsomal CLint of `CN1CCN(Cc2ccc(OC3CN(C(=O)c4nnc(-c5ccccc5)o4)C3)cc2F)CC1` = 20

# microsomal CLint of `COc1ccc(-c2nnc(C(=O)N3CC(Oc4ccc(CN(C)C)cc4)C3)o2)cc1` = 17

# microsomal CLint of `COc1ccc(-c2nnc(C(=O)N3CC(Oc4ccc(CN5CC6(CCCO6)C5)cc4)C3)o2)cc1` = 29

# microsomal CLint of `CN(Cc1ccc(OC2CN(C(=O)c3nnc(-c4ccccc4)o3)C2)cc1)CC1(C)COC1` = 117
